These data points were gathered from paper PMC11345841.

target: FLT3(D835Y) (Homo sapiens, UniProt P36888, D835Y); construct: purchased Eurofins DiscoverX KINOMEscan (scanTK); assay: KINOMEscan ScanTK; format: binding; conditions: read-out: %Control @1000nM
Value type: remaining binding at 1 µM (%)
Just the number please, in %, no unit attached.

Consider the following illustrative entries.
Compound | remaining binding at 1 µM (%)
Cc1cnc(S(C)(=O)=O)nc1N1CCCC(n2nc(-c3ccc(Oc4ccccc4)cc3)c3c(N)ncnc32)C1 (stereo not shown) | 45
CNC(=O)c1cnc(S(C)(=O)=O)nc1N1CCCC(n2nc(-c3ccc(Oc4ccccc4)cc3)c3c(N)ncnc32)C1 (stereo not shown) | 59
CCOC(=O)c1cnc(S(C)(=O)=O)nc1N1CCC[C@@H](n2nc(-c3ccc(Oc4ccccc4)cc3)c3c(N)ncnc32)C1 | 99

API: the following record is the query input.
GET /values?readout=remaining binding at 1 µM&item= COC(=O)c1cnc(S(C)(=O)=O)nc1N1CCCC(n2nc(-c3ccc(Oc4ccccc4)cc3)c3c(N)ncnc32)C1 (stereo not shown)
67

----------
target: EGFR(S752-I759del) (Homo sapiens, UniProt P00533, DEL752-759); construct: purchased Eurofins DiscoverX KINOMEscan (scanTK); test: KINOMEscan ScanTK; assay type: binding; conditions: @1000nM
Sequence (P00533 with tags, fused parts or gaps DEL752-759 limits assumed): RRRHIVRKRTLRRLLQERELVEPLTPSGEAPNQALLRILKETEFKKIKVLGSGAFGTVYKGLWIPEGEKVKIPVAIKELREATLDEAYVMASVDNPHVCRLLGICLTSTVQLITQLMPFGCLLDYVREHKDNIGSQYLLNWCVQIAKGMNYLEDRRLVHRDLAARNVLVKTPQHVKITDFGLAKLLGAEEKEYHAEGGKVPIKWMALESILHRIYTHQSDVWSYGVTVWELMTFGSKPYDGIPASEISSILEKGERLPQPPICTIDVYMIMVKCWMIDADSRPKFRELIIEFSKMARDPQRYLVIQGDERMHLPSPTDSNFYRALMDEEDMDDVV
Recorded measurements of difference in %Control versus compound Ib at 1 µM, one per entry

GET /values?readout=difference in %Control versus compound Ib at 1 µM&item= COC(=O)c1cnc(S(C)(=O)=O)nc1N1CCCC(n2nc(-c3ccc(Oc4ccccc4)cc3)c3c(N)ncnc32)C1 (stereo not shown) [Compound 8b]
80%

----------
molecular target: AXL (Homo sapiens); construct: purchased Eurofins DiscoverX KINOMEscan (scanTK); experiment: KINOMEscan ScanTK; type: binding; details: @1000nM, read-out: %Control
Sequence (P30530 26-894): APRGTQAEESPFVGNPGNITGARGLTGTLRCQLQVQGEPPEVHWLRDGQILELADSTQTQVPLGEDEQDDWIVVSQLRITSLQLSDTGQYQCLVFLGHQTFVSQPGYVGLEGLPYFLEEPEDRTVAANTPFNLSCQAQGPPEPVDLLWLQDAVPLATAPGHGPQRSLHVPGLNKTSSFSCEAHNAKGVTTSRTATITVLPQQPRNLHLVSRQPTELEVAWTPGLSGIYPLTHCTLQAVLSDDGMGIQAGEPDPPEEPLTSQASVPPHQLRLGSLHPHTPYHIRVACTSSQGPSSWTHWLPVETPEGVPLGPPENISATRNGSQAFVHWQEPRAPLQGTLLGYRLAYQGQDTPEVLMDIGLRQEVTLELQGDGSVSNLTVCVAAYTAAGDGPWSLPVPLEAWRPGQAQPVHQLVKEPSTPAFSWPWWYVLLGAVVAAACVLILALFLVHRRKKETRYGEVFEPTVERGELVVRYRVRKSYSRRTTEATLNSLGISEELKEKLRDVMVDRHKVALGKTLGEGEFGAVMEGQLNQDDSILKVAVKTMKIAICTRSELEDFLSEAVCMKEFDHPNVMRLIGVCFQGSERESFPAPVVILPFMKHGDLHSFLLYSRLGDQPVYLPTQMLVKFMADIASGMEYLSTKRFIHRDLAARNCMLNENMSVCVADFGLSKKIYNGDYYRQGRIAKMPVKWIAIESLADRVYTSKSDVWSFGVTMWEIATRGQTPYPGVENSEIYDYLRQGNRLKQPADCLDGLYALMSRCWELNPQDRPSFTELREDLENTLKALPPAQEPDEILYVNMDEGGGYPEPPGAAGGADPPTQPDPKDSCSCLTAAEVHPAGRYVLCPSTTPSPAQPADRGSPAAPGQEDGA
Value type: remaining binding at 1 µM (%)
Just the number please, in %, no unit attached.

Compound | remaining binding at 1 µM (%)
C=CC(=O)N1CCC[C@@H](n2nc(-c3ccc(Oc4ccccc4)cc3)c3c(N)ncnc32)C1 [Compound 1g, Ibrutinib, reference compound] | 75
Cc1cnc(S(C)(=O)=O)nc1N1CCCC(n2nc(-c3ccc(Oc4ccccc4)cc3)c3c(N)ncnc32)C1 (centres unmarked) | 100
COC(=O)c1cnc(S(C)(=O)=O)nc1N1CCCC(n2nc(-c3ccc(Oc4ccccc4)cc3)c3c(N)ncnc32)C1 (centres unmarked) | 100

GET /values?readout=remaining binding at 1 µM&item= CNC(=O)c1cnc(S(C)(=O)=O)nc1N1CCCC(n2nc(-c3ccc(Oc4ccccc4)cc3)c3c(N)ncnc32)C1 (centres unmarked)
97

GET /values?readout=remaining binding at 1 µM&item= CCOC(=O)c1cnc(S(C)(=O)=O)nc1N1CCC[C@@H](n2nc(-c3ccc(Oc4ccccc4)cc3)c3c(N)ncnc32)C1
100

----------
target: CSF1R (Homo sapiens, UniProt P07333); construct: purchased Eurofins DiscoverX KINOMEscan (scanTK); experiment: KINOMEscan ScanTK; format: binding; details: read-out: %Control @1000nM
Sequence (P07333 20-972): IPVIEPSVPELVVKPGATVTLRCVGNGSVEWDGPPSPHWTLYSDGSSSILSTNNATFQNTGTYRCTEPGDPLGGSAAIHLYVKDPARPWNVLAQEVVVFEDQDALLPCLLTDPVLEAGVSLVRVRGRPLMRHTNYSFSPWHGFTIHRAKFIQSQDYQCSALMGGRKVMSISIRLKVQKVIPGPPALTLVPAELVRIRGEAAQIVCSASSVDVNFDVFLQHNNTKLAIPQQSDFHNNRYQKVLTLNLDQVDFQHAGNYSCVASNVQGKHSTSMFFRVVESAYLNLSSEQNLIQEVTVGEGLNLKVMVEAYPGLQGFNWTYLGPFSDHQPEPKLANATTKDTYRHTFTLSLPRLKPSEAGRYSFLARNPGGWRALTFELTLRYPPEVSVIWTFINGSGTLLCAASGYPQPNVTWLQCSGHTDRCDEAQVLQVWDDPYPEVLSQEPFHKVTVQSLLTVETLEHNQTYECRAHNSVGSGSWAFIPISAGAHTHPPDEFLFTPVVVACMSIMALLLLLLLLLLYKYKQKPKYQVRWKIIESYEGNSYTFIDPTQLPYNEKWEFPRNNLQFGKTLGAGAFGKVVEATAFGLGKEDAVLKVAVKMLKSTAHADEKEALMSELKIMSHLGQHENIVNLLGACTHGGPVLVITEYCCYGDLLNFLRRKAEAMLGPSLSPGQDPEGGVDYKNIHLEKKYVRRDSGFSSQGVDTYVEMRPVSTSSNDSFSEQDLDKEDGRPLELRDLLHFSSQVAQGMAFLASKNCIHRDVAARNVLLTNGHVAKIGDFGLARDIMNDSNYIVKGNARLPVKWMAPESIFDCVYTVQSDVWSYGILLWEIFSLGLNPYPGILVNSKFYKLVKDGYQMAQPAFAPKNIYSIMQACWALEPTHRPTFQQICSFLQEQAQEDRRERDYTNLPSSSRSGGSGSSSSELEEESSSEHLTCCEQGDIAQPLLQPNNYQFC
Value type: remaining binding at 1 µM (%)
Just the number please, in %, no unit attached.

Consider the following illustrative entries.
Compound | Units text | remaining binding at 1 µM
CCOC(=O)c1cnc(S(C)(=O)=O)nc1N1CCC[C@@H](n2nc(-c3ccc(Oc4ccccc4)cc3)c3c(N)ncnc32)C1 [Compound 8c] | % | 96
Cc1cnc(S(C)(=O)=O)nc1N1CCCC(n2nc(-c3ccc(Oc4ccccc4)cc3)c3c(N)ncnc32)C1 (centres unmarked) [Compound 8a] | % | 92
CNC(=O)c1cnc(S(C)(=O)=O)nc1N1CCCC(n2nc(-c3ccc(Oc4ccccc4)cc3)c3c(N)ncnc32)C1 (centres unmarked) [Compound 8d] | % | 99
COC(=O)c1cnc(S(C)(=O)=O)nc1N1CCCC(n2nc(-c3ccc(Oc4ccccc4)cc3)c3c(N)ncnc32)C1 (centres unmarked) [Compound 8b] | % | 92

API: the following record is the query input.
GET /values?readout=remaining binding at 1 µM&item= C=CC(=O)N1CCC[C@@H](n2nc(-c3ccc(Oc4ccccc4)cc3)c3c(N)ncnc32)C1 [Compound 1g, Ibrutinib, reference compound]
80
